Provenance of the data: ChEMBL document CHEMBL3779813

# target-or-system: DNA topoisomerase 2-alpha (Homo sapiens)
# measurement-notes: Inhibition of human recombinant topoisomerase 2alpha assessed as relaxation of supercoiled plasmid DNA pBR322 at 20 uM after 30 mins by ethidium bromide staining based agarose gel electrophoresis
# reported inhibition; entries follow
measured-metric: inhibition (%)

In [3]: df
Out[3]:
                                   compound                          target_or_system  measured_metric  unit_descriptor  observed_result
0  COc1ccc(C2CC(c3ccccc3)=NN2C(=O)c2ccncc2)cc1 (centres undefined)  DNA topoisomerase 2-alpha (Homo sapiens)       inhibition                %                0
1  COc1ccc(C2CC(c3ccccc3)=NN2C(=O)c2nc3ccccc3s2)cc1 (centres undefined)  DNA topoisomerase 2-alpha (Homo sapiens)       inhibition                %                0
2  COc1ccccc1C1=NN(C(=O)c2ccncc2)C(c2ccc([N+](=O)[O-])cc2)C1 (centres undefined)  DNA topoisomerase 2-alpha (Homo sapiens)       inhibition                %                0
3  COc1ccccc1C1=NN(C(=O)c2ccc([N+](=O)[O-])o2)C(c2ccc([N+](=O)[O-])cc2)C1 (centres undefined)  DNA topoisomerase 2-alpha (Homo sapiens)       inhibition                %              2.9
4  O=C(c1ccco1)N1N=C(c2ccc(Cl)cc2)CC1c1ccco1 (centres undefined)  DNA topoisomerase 2-alpha (Homo sapiens)       inhibition                %              1.3
5  O=C(c1ccncc1)N1N=C(c2ccc(Cl)cc2)CC1c1ccco1 (centres undefined)  DNA topoisomerase 2-alpha (Homo sapiens)       inhibition                %                0
6  COc1ccc(C2CC(c3ccccc3)=NN2C(=O)c2ccco2)cc1 (centres undefined)  DNA topoisomerase 2-alpha (Homo sapiens)       inhibition                %                0
7  COc1ccc(C2CC(c3ccc(Cl)cc3)=NN2C(=O)c2nc3ccccc3s2)cc1 (centres undefined)  DNA topoisomerase 2-alpha (Homo sapiens)       inhibition                %                0
8  COc1ccc(C2=NN(C(=O)c3ccco3)C(c3ccco3)C2)cc1 (centres undefined)  DNA topoisomerase 2-alpha (Homo sapiens)       inhibition                %                0
